Data origin: ChEMBL document CHEMBL4513216

system: Plasmodium berghei; test: Screen against P. berghei liver stage (PbLuc), transformed with Luciferase, at 10uM; assay type: functional, HepG2; settings: tested at 10 uM
About 8,600 (12%) of roughly 69,000 compounds showed an effect of 50% or more. This is one part of a sample in which strong results are shown more often than they occur.
value.kind: INHIBITION (%)

* Cc1noc(C2CCN(C(=O)c3cccs3)CC2)n1 | 21
* N#Cc1cccc(C(=O)N2CCN(c3ncccn3)CC2)c1 | 62.1
* CN(c1ncc(C(=O)NCc2ccccc2)c(N)n1)C1CCCCC1 | 63.6
* CC/C=C(\C)CN1CCC(CNC(=O)c2ccnc(N)c2)C1 (centres undefined) | -5.8
* CC(=O)NC(C)c1ccc(OCC2CC2)c(F)c1 (centres undefined) | 26.8
* Nc1ccnn1C1CCN(Cc2ccccc2)C1 (centres undefined) | 43.1
* CC(NC(=O)c1ccnn1C)c1ccc(OCC2CC2)c(F)c1 (centres undefined) | 68.2
* COCC(=O)N1CCc2ccccc2C12CCNCC2 | 40.5
* CCC1CCC(CNC(=O)c2c[nH]c(=O)c(Cl)c2)CC1 (centres undefined) | 4.35
* O=C(c1cccnc1N1CCOC(c2ccc(Cl)cc2)C1)N1CCCC1 (centres undefined) | 45.1
* Cn1ccc(C(=O)N2CCN(c3ncccn3)CC2)cc1=O | 31.3
* Cc1cnn(C2CCN(Cc3ccccc3)C2)c1N (centres undefined) | 56.1
* Cc1ccc(C(=O)NCc2ccc(N(C)C)cc2)cn1 | 32
* O=C(C1CC1)N1CCc2ccccc2C12CCNCC2 | 55.4
* CN(c1ccc(CNC(=O)c2ccc(O)nc2)cc1)C1CCCCC1 | 67.8
* COc1cc(N2CCC3(CC2)CC(N2CCOCC2)C3)ncn1 | 0.112
* O=C(C1CC1)N1CC2(CCNCC2)C1 | -1.12
* O=C(c1cccnc1N1CCCC1)N1CCOC(c2ccccc2)C1 (centres undefined) | -30.2
* CCOc1ccnc(N2CCN(C(=O)c3cccc(C#N)c3)CC2)n1 | -13.7
* O=C(Nc1nc(-c2ccccc2)ns1)N1CC[C@H](O)C1 | 9.79
* Cn1ccc(C(=O)N2CCN(c3ccccn3)CC2)cc1=O | 36.1
* CC(C)NC(=O)COc1cccc(-c2nc(C(C)C)no2)c1 | 26.8
* CNC(=O)c1ccc(CNC(=O)NCCN(C)C2CCCC2)cc1 | -2.53
* CC(C)(C)c1nc(CC(=O)N2CCCC(n3cncn3)C2)cs1 (centres undefined) | 47.65
* CCOC(=O)N1CC2(CCNCC2)c2cc(Cl)ccc21 | 21.1
* Cc1ccc(F)c(C(=O)Nc2c(C(N)=O)n[nH]c2C)c1 | -18.3
* O=C(c1ccc(Cl)cc1)N1CCC2(C1)C(=O)Nc1ccccc12 (centres undefined) | -18.8
* COC(=O)c1ccc(N2CCN(C(=O)c3ccc(=O)n(C)c3)CC2)cc1 | 36.9
* CCc1nnc(CN(CC)C(=O)C2CC(=O)N(C(C)(C)C)C2)o1 (centres undefined) | 35.8
* CC/C=C(\C)CN1CCC(CNC(=O)c2c[nH]c(=O)c(Cl)c2)C1 (centres undefined) | 63.8
* O=C(NCCc1nccs1)c1cn(CCN2CCNCC2)nn1 | -45
* N#Cc1ccc(OCCN2CCNC(=O)C2c2cccs2)cc1 (centres undefined) | 3.04
* N#Cc1cccc(C(=O)N2CCCC(O)(CO)CC2)c1 (centres undefined) | 66.9
* CC(NC(=O)c1ccc(=O)n(C)c1)c1ccc(OCC2CC2)c(F)c1 (centres undefined) | 40.97
* COc1ccnc(N2CCN(C(=O)c3cccc(C#N)c3)CC2)n1 | 18.2
* COc1ccc(NC(=O)c2cnc(N(C)C3CCCCC3)nc2N)cc1 | 35.7
* Cn1cc(NS(=O)(=O)CCOc2ccc(F)cc2)cn1 | -15.29
* CC(C)(C)Oc1ccc(CN)c(C(F)(F)F)c1 | 30.8
* CN1CC(=O)N(c2cccc(F)c2)CC12CCN(CC1CCOCC1)C2 (centres undefined) | -4.23
* CN(C)S(=O)(=O)c1ccc(CN2CCCC2c2ccsc2)o1 (centres undefined) | -0.96
* CN(c1ccc(CNC(=O)c2c[nH]c(=O)c(Cl)c2)cc1)C1CCCCC1 | 77.6
* CCN(C(=O)COc1nc(Cc2ccc(F)cc2)no1)C1CC1 | -50.7
* Cn1ccnc1CNC(=O)c1cnc(C2CCNCC2)cn1 | 33
* O=C(NCc1ccoc1)NC1CCCN(c2ncccn2)C1 (centres undefined) | -22.1
